Collected literature values of pKi measured for Trace amine-associated receptor 1 (Mus musculus).
pKi: −log10 of the molar value.
Label Yes when pKi >= 8; otherwise No.

[[record]]
smiles_string = "CCN(C[C@H]1COC(N)=N1)c1cc(Cl)cc(Cl)c1"
cat = "Yes"

[[record]]
smiles_string = "CN(C[C@H]1COC(N)=N1)c1cccc(-c2cnco2)c1"
cat = "Yes"

[[record]]
smiles_string = "CCN(Cc1ncc[nH]1)c1cccc(F)c1"
cat = "No"

[[record]]
smiles_string = "CCc1n[nH]c(C(=O)Nc2ccc(C=C3CNC3)c(F)c2)c1C"
cat = "No"

[[record]]
smiles_string = "CCN(C[C@H]1COC(N)=N1)c1ccc(Cl)cc1"
cat = "Yes"

[[record]]
smiles_string = "CCN(C[C@@H]1COC(N)=N1)c1ccccc1"
cat = "Yes"

[[record]]
smiles_string = "Cc1ccc(N(C)C[C@H]2COC(N)=N2)c(F)c1"
cat = "Yes"

[[record]]
smiles_string = "O=C(Nc1ccc(C[C@@H]2NC[C@@H]2F)cc1)c1cnc(C(F)(F)F)nc1"
cat = "No"

[[record]]
smiles_string = "CCc1n[nH]c(C(=O)Nc2ccc(OC3CNC3)cc2)c1Br"
cat = "Yes"

[[record]]
smiles_string = "CCN(C[C@@H]1COC(N)=N1)c1ccc(Cl)c(Cl)c1"
cat = "Yes"

[[record]]
smiles_string = "O=C(Nc1ccc(OC2CNC2)cc1)c1cnc(OCC(F)(F)F)cn1"
cat = "Yes"

[[record]]
smiles_string = "CN(C[C@H]1COC(N)=N1)c1ccc(Cl)c(Cl)c1"
cat = "Yes"

[[record]]
smiles_string = "CC(C)N(C[C@H]1COC(N)=N1)c1ccc(Cl)c(Cl)c1"
cat = "No"

[[record]]
smiles_string = "FC(F)(F)c1cnc(Nc2ccc(C=C3CNC3)cc2)nc1"
cat = "No"


====

Collected literature values of Ki measured for Trace amine-associated receptor 1 (Mus musculus).
Property label: Ki (nM)

[[record]]
smiles_string = "CCOc1ccc(C(=O)Nc2ccc(OC3CNC3)c(F)c2)cn1"
property_label = "Ki"
measure_unit = "nM"
value_measured = 9.6

[[record]]
smiles_string = "CC(C)N(C[C@@H]1COC(N)=N1)c1ccc(Cl)c(Cl)c1"
property_label = "Ki"
measure_unit = "nM"
value_measured = 5.3

[[record]]
smiles_string = "CC(C)N(Cc1ncc[nH]1)c1cccc(-c2ccccc2)c1"
property_label = "Ki"
measure_unit = "nM"
value_measured = 77

[[record]]
smiles_string = "O=C(Nc1ccc(Cl)cc1)c1ccc(OC2CNC2)cc1"
property_label = "Ki"
measure_unit = "nM"
value_measured = 9.9

[[record]]
smiles_string = "COc1cc(N(C)C[C@@H]2COC(N)=N2)ccc1Cl"
property_label = "Ki"
measure_unit = "nM"
value_measured = 2.6

[[record]]
smiles_string = "CCN(C[C@@H]1COC(N)=N1)c1ccc2ccccc2c1"
property_label = "Ki"
measure_unit = "nM"
value_measured = 2.9

[[record]]
smiles_string = "CCN(C[C@H]1COC(N)=N1)c1ccc(C(F)(F)F)cc1C"
property_label = "Ki"
measure_unit = "nM"
value_measured = 9.2

[[record]]
smiles_string = "CCn1cc(Cl)c(C(=O)Nc2ccc(OC3CNC3)cc2)n1"
property_label = "Ki"
measure_unit = "nM"
value_measured = 2030

[[record]]
smiles_string = "Cn1nc(C(F)(F)F)cc1C(=O)Nc1ccc(OC2CNC2)cc1"
property_label = "Ki"
measure_unit = "nM"
value_measured = 72.9

[[record]]
smiles_string = "COc1cc(C(=O)Nc2ccc(OC3CNC3)cc2)cc(C#N)n1"
property_label = "Ki"
measure_unit = "nM"
value_measured = 5.6

